System: STREPTOCOCCUS BOVIS A-5169
protocol.details: In vitro antibacterial activity, MIC, BHI agar dilution
Format: cell-based
particulars: S. bovis A-5169, unit assumed
Reported MIC is given for each of the following compounds.

Below: 2 compounds and their reported MIC.
| compound | MIC |
| --- | --- |
| CCC1OC(=O)C(C)C(=O)C(C)C(OC2OC(C)CC(N(C)C)C2O)C(C)(OC)CC(C)C2=NCC(CSc3ccccc3)(CN(C)C)N3C(=O)OC1(C)C3C2C (stereo not drawn) | 0.1 µg/mL |
| CC[C@H]1OC(=O)[C@H](C)C(=O)[C@H](C)[C@@H](O[C@@H]2O[C@H](C)C[C@H](N(C)C)[C@H]2O)[C@](C)(OC)C[C@@H](C)C2=NC3CN(CCc4ccc([N+](=O)[O-])cc4)CC3N3C(=O)O[C@@]1(C)[C@H]3[C@H]2C (stereo partly drawn) | ≤ 0.005 µg/mL |

Query compound follows.
Query string: Form field: reported MIC of CC[C@H]1OC(=O)[C@H](C)C(=O)[C@H](C)[C@@H](O[C@@H]2O[C@H](C)C[C@H](N(C)C)[C@H]2O)[C@](C)(OC)C[C@@H](C)C2=NC3COCC3N3C(=O)O[C@@]1(C)[C@H]3[C@H]2C (stereo partly drawn)
Result string: 0.02 µg/mL

----------
Tested on: PSEUDOMONAS CEPACIA 296I
protocol.details: In vitro antibacterial activity, MIC, BHI agar dilution
Format: cell-based
particulars: P. cepacia 296I, unit assumed
property: MIC (µg/mL)
Give the number; µg/mL is assumed, so skip it.

Query string: Form field: reported MIC of CC[C@H]1OC(=O)[C@H](C)C(=O)[C@H](C)[C@@H](O[C@@H]2O[C@H](C)C[C@H](N(C)C)[C@H]2O)[C@](C)(OC)C[C@@H](C)C2=N[C@H](COCc3ccc(C#N)cc3)CN3C(=O)O[C@@]1(C)[C@H]3[C@H]2C
Result string: 50

----------
Tested on: STREPTOCOCCUS PYOGENES EES61
protocol.details: In vitro antibacterial activity, MIC, BHI agar dilution
Format: cell-based
particulars: S. pyogenes EES61, unit assumed
property: MIC (µg/mL)
Give the number; µg/mL is assumed, so skip it.

Below: 2 compounds and their reported MIC.
| compound | tgt | MIC (µg/mL) |
| --- | --- | --- |
| CC[C@H]1OC(=O)[C@H](C)C(=O)[C@H](C)[C@@H](O[C@@H]2O[C@H](C)C[C@H](N(C)C)[C@H]2O)[C@](C)(OC)C[C@@H](C)C2=NC3CN(CCN(C)C)CC3N3C(=O)O[C@@]1(C)[C@H]3[C@H]2C (stereo partly shown) | STREPTOCOCCUS PYOGENES EES61 | 0.02 |
| CC[C@H]1OC(=O)[C@H](C)C(=O)[C@H](C)[C@@H](O[C@@H]2O[C@H](C)C[C@H](N(C)C)[C@H]2O)[C@](C)(OC)C[C@@H](C)C2=N[C@@H](C)[C@H](C)N3C(=O)O[C@@]1(C)[C@H]3[C@H]2C | STREPTOCOCCUS PYOGENES EES61 | 0.005 |

Query compound follows.
Query string: Form field: reported MIC of CC[C@H]1OC(=O)[C@H](C)C(=O)[C@H](C)[C@@H](O[C@@H]2O[C@H](C)C[C@H](N(C)C)[C@H]2O)[C@](C)(OC)C[C@@H](C)C2=N[C@H](COCc3cccc(Cl)c3)CN3C(=O)O[C@@]1(C)[C@H]3[C@H]2C
Result string: 0.01

Origin of measurements: patent US6274715A
